System: E. coli
PROTOCOL DETAILS: Gram negative MIC protocol (OD600, LB, 24 h)
MEASUREMENT CONTEXT: Escherichia coli, read-out: MIC WT E. coli LB Media, wild-type E. coli, LB media, 24 h, OD600
Structures can show the parent of a compound that is named as a salt.
MEASURE NAME: MIC

Examples from the recorded data:
COC(=O)C(CC1CCCCC1)NCc1ccccc1 (stereo not drawn) [B203, hydrochloride]    > 300 µM
Cc1nnc(COc2ccccc2CNC(C)CC2CCCCC2)o1 (stereo not drawn) [B279]    > 150 µM

// switching to the query molecule
Task: Can you look up the measured MIC of COC(=O)c1ccccc1CNCCC1CCCCC1 [B258, hydrochloride] for me?
Result: > 150 µM
